System: DKK-1
Assay: Real-time PCR gene expression in dermal papilla cells: DKK-1
Format: cell-based, human
Settings: 10 μg/mL; non-treated group = 100
reported metric: Expression of Genes (%): DKK-1
Numbers only, in %.

Hi, could you look up Expression of Genes (%): DKK-1 for each item in my list?
1. COc1ccc(/C=C/c2cc(O)cc(O[C@@H]3O[C@H](CO)[C@@H](O)[C@H](O)[C@H]3O)c2)cc1O [Rhaponticin]
2. O=C(O)c1cc(O)c2c(c1)C(=O)c1cccc(O)c1C2=O [Rhein]
3. COc1cc(OC2OC(CO)C(O)C(O)C2O)c2c(c1)C(=O)c1cc(C)cc(O)c1C2=O (stereo not drawn) [Physicon-8-O-d-glucopyranoside]
4. Cc1cc(O)c2c(c1)C(=O)c1cccc(O)c1C2=O [Chrysophanol]

1. 112
2. 76
3. 75
4. 123

Source: patent US20210268009A1
